tested on: HCC 2998; test: NCI tumour cell line growth inhibition, 48 h
Activity calls are given as the source filed them. Rule as the data show it: active = GI50 up to about 1.1 µM and inactive = higher.
Would you mind answering with one of these outcomes? active, inactive

Previously resolved entries follow.
INSERT INTO assay_data (molecule, classification) VALUES
  ('Cc1c2ccncc2cc2c1[nH]c1ccccc12', 'inactive'),
  ('CC(=O)OCc1cc2ccccc2nc1C(Br)(Br)Br', 'inactive'),
  ('COc1cc2c(cc1OC)C1CCc3ccccc3CN1CC2 (stereo unspecified)', 'inactive'),
  ('C[N+]1(C)CC[N+](C)(C)[BH-]1C(O)O', 'inactive'),
  ('CCc1cccc(C(C)C)c1NC(=O)C(=O)CC(=O)c1c(C)[n+]([O-])c2ccccc2[n+]1[O-]', 'inactive');

Assay result, entry NC1=CN(Cc2ccccc2)C2=N/C(=C\c3ccco3)C(=O)N12 — outcome? inactive

Assay result, entry NC(CCCCNC(=O)CNC(=O)OCc1ccccc1)C(=O)NC(CCCCNC(=O)CNC(=O)OCc1ccccc1)C(=O)NC(CCCCNC(=O)CNC(=O)OCc1ccccc1)C(=O)NC(CCCCNC(=O)CNC(=O)OCc1ccccc1)C(=O)NC(CCCCNC(=O)CNC(=O)OCc1ccccc1)C(=O)NC(CCCCNC(=O)CNC(=O)OCc1ccccc1)C(=O)O (stereo unspecified) — outcome? inactive

Assay result, entry O=C(Nc1ccccc1)c1cc(S(=O)(=O)Nc2n[nH]c(=O)n2-c2ccccc2)c(S)cc1Cl — outcome? inactive

Assay result, entry O=C1/C(=N/c2ccccc2)Oc2cc(O)ccc21 — outcome? inactive

Assay result, entry O=C(NC12CC3CC(CC(C3)C1)C2)n1cnc2c(Cl)ncnc21 — outcome? inactive

----------
The molecules listed here are annotated with their GI50.
tested on: M14; test: NCI tumour cell line growth inhibition, 48 h
Activity calls are given as the source filed them. Cut-off read from the data, not from the text of the source: active = GI50 up to about 1.1 µM and inactive = higher.

Reference set, count: 10
INSERT INTO results (molecule, observed_result) VALUES
  ('C[C@]1(O)O[C@@H]2OCC[C@@H]2C2=C1C(=O)c1ccccc1C2=O', '11.3 µM (inactive)'),
  ('Oc1ccccc1/C=N/c1nc2cc3sc(/N=C/c4ccccc4O)nc3cc2s1', '97.1 µM (inactive)'),
  ('CCn1c(-c2ccc(OC)cc2)nc2c1C(=O)c1ccccc1C2=O', '> 100 µM (inactive)'),
  ('O=C(CC1(O)C(=O)Nc2c(Cl)ccc(Cl)c21)c1ccc(F)cc1 (stereo not given)', '38.8 µM (inactive)'),
  ('Cc1c2c(c(C)c3c[n+](C)ccc13)Oc1ccccc1O2', '18.2 µM (inactive)'),
  ('C/C(=C\COc1ccc2ccc(=O)oc2c1)C1=CC(=O)C(C)(C)O1 [GEIPARVARIN]', '4.04 µM (inactive)'),
  ('Cc1c2ncccc2c(C)c2c1[nH]c1ccc(O)cc12', '4.89 µM (inactive)'),
  ('COc1ccc(NCC(=O)Nn2c(-c3ccccc3)nc3ccccc3c2=O)cc1', '41.3 µM (inactive)'),
  ('O=C1/C(=N/c2ccccc2)Oc2cc(O)ccc21', '> 100 µM (inactive)'),
  ('CCOC(=O)c1cc2c(=Cc3ccc(N(C)C)cc3)c3ccccc3n2[n+]1C', '3.15 µM (inactive)');

Using the record for COC(=O)[C@H](Cc1ccccc1)NC(=O)CCCCCCC(=O)NO , report its GI50. 20.9 µM (inactive)

Using the record for O=C(CC(=O)N1N=C(c2ccccc2)C(/N=N/c2ccc(S(=O)(=O)CCOS(=O)(=O)O)cc2)C1=O)Nc1ccc(Cl)cc1 (stereo not given) , report its GI50. 28.1 µM (inactive)

Using the record for Nc1nc(Nc2ccc(Cl)cc2)sc1C(=O)c1cccs1 , report its GI50. > 100 µM (inactive)

Using the record for O=C(/C=C/c1ccc(O)c(O)c1)NC(COC(=O)/C=C/c1ccc(O)c(O)c1)C(=O)O (stereo not given) , report its GI50. > 100 µM (inactive)

Using the record for C=CCc1cc(-c2cc(CC=C)c(O)c(CN(CCCl)CCCl)c2)cc(CN(CCCl)CCCl)c1O , report its GI50. 15.4 µM (inactive)

Using the record for O=C(N/C(=C\c1ccc2c(c1)OCO2)c1nc2ccccc2[nH]1)c1ccccc1 , report its GI50. 25.1 µM (inactive)

Using the record for CN(C(=O)c1ccco1)C(=S)N1CCN(c2ccccc2)CC1 , report its GI50. > 100 µM (inactive)

Using the record for O=C1NC(=O)C(c2c[nH]c3ccccc23)=C1c1cn(C(c2ccccc2)(c2ccccc2)c2ccccc2)cn1 , report its GI50. 4.76 µM (inactive)

Using the record for CN(C)CCS/C(=N\c1ccccc1)n1cccc1 , report its GI50. > 100 µM (inactive)

Using the record for CC1(CNCc2ccccc2)CC(CCc2ccccc2)N(C(=O)c2ccc([N+](=O)[O-])cc2)C1Cc1ccc(O)cc1 (stereo not given) , report its GI50. 13.7 µM (inactive)

----------
tested on: NCI-H522; assay: NCI tumour cell line growth inhibition, 48 h
The source made the active and inactive calls. Rule as the data show it: active = GI50 up to about 1.1 µM and inactive = higher.
Would you mind answering with one of these outcomes? active, inactive

INSERT INTO measurements (molecule, classification) VALUES
  ('Cn1c2ccccc2n2c3ncccc3/c(=N/CCCC(=O)O)c(C#N)c12', 'inactive'),
  ('O=c1[nH]c(=O)n(C2CC(O)C(CO)O2)cc1OCc1ccccc1 (stereo unspecified)', 'inactive'),
  ('CCC12C=CCN(CCc3c([nH]c4ccccc34)/C=C\1)C2 (stereo unspecified)', 'inactive'),
  ('Cc1cn(S(=O)(=O)c2ccccc2)c2c(OCc3ccccc3)cc([N+](=O)[O-])cc12', 'inactive'),
  ('COc1c(OC(C)=O)c(OC(C)=O)cc2c1-c1ccc(OC)c(=O)cc1C(NC(C)=O)CC2 (stereo unspecified)', 'active');

Assay result, entry O=C(Nc1ccccc1)c1cc(S(=O)(=O)Nc2n[nH]c(=O)n2-c2ccccc2)c(S)cc1Cl — outcome? inactive

----------
test system: SNB-19; test: NCI tumour cell line growth inhibition, 48 h
Activity calls are given as the source filed them. Rule as the data show it: active = GI50 up to about 1.1 µM and inactive = higher.
Would you mind answering with one of these outcomes? active, inactive

Previously resolved entries follow.
INSERT INTO assay_data (molecule, classification) VALUES
  ('COc1cc2cc(C(=O)N3CC(CCl)c4ccc(N(C)C)cc43)[nH]c2c(OC)c1OC (stereo not given)', 'active'),
  ('CCN(CC)CCCC(C)Nc1cc(-c2ccccc2)nc2cc(OC)ccc12 (stereo not given)', 'inactive'),
  ('Cn1c2ccccc2n2c3ncccc3/c(=N/CCCC(=O)O)c(C#N)c12', 'inactive'),
  ('COCO[C@@H]1C[C@H]2C(=O)N(COC)c3ccccc3C(=O)N2C1', 'inactive');

Assay result, entry NCCCNCCCCN(CCCN)/[N+]([O-])=N\O — outcome? inactive

----------
tested on: OVCAR-8; experiment: NCI tumour cell line growth inhibition, 48 h
Active and inactive are the calls of the source. No stated cut-off is given here; in the data, active = GI50 up to about 1.1 µM and inactive = higher.
The compounds listed here are annotated with their GI50.

Reference set, count: 8
INSERT INTO results (compound, observed_result) VALUES
  ('C[N+]1(C)CC[N+](C)(C)[BH-]1C(O)O', '> 100 µM (inactive)'),
  ('COC(=O)[C@@H]1CSC(=S)N1C(=O)C[C@H]1CC=CC[C@H]1CC(=O)Sc1ccccc1', '21 µM (inactive)'),
  ('C=C1CC(COc2ccc3c(C)cc(=O)oc3c2)(c2ccccc2)OC1=O (stereo not drawn)', '2.26 µM (inactive)'),
  ('COc1ccc(NC(=O)CC(=O)N/N=C(\C)c2cc3ccccc3oc2=O)cc1', '> 100 µM (inactive)'),
  ('CC1(CNCc2ccccc2)CC(CCc2ccccc2)N(C(=O)c2ccc([N+](=O)[O-])cc2)C1Cc1ccc(O)cc1 (stereo not drawn)', '14.4 µM (inactive)'),
  ('CC(C)N(C(=O)C12C3C4C1(I)C1C2C3(I)C41C(=O)N(C(C)C)C(C)C)C(C)C (stereo not drawn)', '> 100 µM (inactive)'),
  ('CCCCCNC(=O)C1C(=O)N(CCCCC)C(=O)/C1=N\N (stereo not drawn)', '49.2 µM (inactive)'),
  ('COc1cccc2nc3c(C(=O)NCCN(C)C)cccc3cc12', '1.26 µM (inactive)');

Using the record for NC(CCCCNC(=O)CNC(=O)OCc1ccccc1)C(=O)NC(CCCCNC(=O)CNC(=O)OCc1ccccc1)C(=O)NC(CCCCNC(=O)CNC(=O)OCc1ccccc1)C(=O)NC(CCCCNC(=O)CNC(=O)OCc1ccccc1)C(=O)NC(CCCCNC(=O)CNC(=O)OCc1ccccc1)C(=O)NC(CCCCNC(=O)CNC(=O)OCc1ccccc1)C(=O)O (stereo not drawn) , report its GI50. > 75 µM (inactive)

Using the record for CO[C@@]1(c2ccccc2)O[C@H]2OCCC2[C@H]1c1ccc(Cl)cc1 (stereo partly drawn) , report its GI50. 33.7 µM (inactive)

Using the record for Nc1ncnc2c1ncn2[C@@H]1C[C@H](NO)[C@@H](O)[C@H]1O , report its GI50. > 100 µM (inactive)

Using the record for O=c1[nH]c(=O)n(C2CC(O)C(CO)O2)cc1OCc1ccccc1 (stereo not drawn) , report its GI50. > 100 µM (inactive)

Using the record for O=C(c1cccs1)N(C(=S)OC12CC3CC(CC(C3)C1)C2)c1ccccc1 , report its GI50. 31.8 µM (inactive)
